System: tRNA 2'-phosphotransferase TPT1 (Candida albicans SC5314)
Experiment: tRNA 2'-phosphotransferase blockers, C. albicans – biochemical, fluorescence polarization, primary screen (AID 1962)
Conditions: recombinant caTPT1, FP RNA substrate dephosphorylation; at 5 µM
The campaign covered roughly 300,000 compounds. About 2,500 (0.83%) were called active.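 Rule for the calls: active = inhibition above the mean of all tested compounds plus 3 SD, set per screening campaign (cut at about 24% in these data); inactive = the rest.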 This is one part of a sample in which actives are shown more often than they occur.
Bench note: report the call from yes (active), no (inactive)

Query string: Record lookup: outcome of this test for Fc1ccc(/C=N/Nc2nc(-c3cccnc3)nc3ccccc23)cc1 ?
Result string: no

Query string: Name the outcome recorded for Cc1nc2ccccc2nc1N/N=C/c1ccc(O)cc1O in the assay.
Result string: no

Query string: Short answer needed: outcome of this test for CCC(=O)N1c2ccc(S(=O)(=O)NCc3ccco3)cc2CC1C (stereo unspecified) ?
Result string: no

Query string: Hi, sorry to bother you, what did the test record for Cc1cc(/C=C2/SC(=O)N(CC(=O)N3CCCC3)C2=O)ccc1N1CCOCC1 ?
Result string: yes

Query string: Which result was noted for this molecule in the test: O=C(N/N=C/c1ccc([N+](=O)[O-])cc1)c1c[nH]c2ccccc12
Result string: no

Query string: For this molecule, state the assay outcome: O=[N+]([O-])c1cccc(/C=N/Nc2ncc(Br)cn2)c1
Result string: no

Query string: # lookup: test call for CSCCC(NC(=O)c1ccc(Cl)cc1Cl)C(=O)NNC(=O)c1csc(N2CCOCC2)n1 (stereo unspecified)
Result string: no

Query string: Recorded test call requested for Cc1ccc(Cc2nnc(SCC(=O)Nc3ccccc3C)[nH]c2=O)cc1
Result string: no

Query string: I would be grateful if you could indicate the recorded call for CCOc1cc(/C=C2/C(=N)N3OC(C)=CC3=NC2=O)ccc1OC .
Result string: no

Query string: Record lookup: outcome of this test for Cc1cccc(COc2ccccc2/C=N/Nc2ccc([N+](=O)[O-])cc2)c1 ?
Result string: yes

Query string: Test call for this molecule, please: O=[N+]([O-])c1ccc(N/N=C/c2ccccc2)cc1
Result string: yes

----------
Test system: tRNA 2'-phosphotransferase TPT1 (Candida albicans SC5314)
Experiment: tRNA 2'-phosphotransferase blockers, C. albicans – biochemical, fluorescence polarization, primary screen (AID 1962)
Conditions: recombinant caTPT1, FP RNA substrate dephosphorylation; at 5 µM
About 2,500 (0.83%) of roughly 300,000 compounds were called active.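 The calls were made as follows: active = inhibition above the mean of all tested compounds plus 3 SD, set per screening campaign (cut at about 24% in these data); inactive = the rest.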 The list comes from a sample in which actives are over-represented; it also holds close analogues and randomly drawn compounds.
# valid calls are T for active, F for inactive; nothing else

Query string: Field: outcome | Entry: Cc1ccc2cc(/C=N/NC(=O)[C@@H]3CCCN3)c(Cl)nc2c1
Result string: F

Query string: Would you mind telling me which call this test gave COc1ccc(/C=C2\SC(=S)N(CCC(=O)Nc3ccccn3)C2=O)cc1OC ?
Result string: F

Query string: GET /call?item= O=C(O)c1ccc(N/N=C/c2ccc3ncccc3c2)cc1 returns the recorded outcome of this test.
Result string: F

Query string: Assay outcome for Cc1cc(/C=N/NC(=O)c2cccnc2)c(C)n1CC(C)C : what was it?
Result string: F

Query string: Call for entry COc1ccc(CCOC(=O)CNC(=O)c2ccc(Cl)cc2Cl)cc1 :
Result string: F

Query string: Please share the test call associated with O=C(N/N=C/c1ccccn1)c1cccnc1 .
Result string: F

Query string: // param item: COc1ccc(/C=C2\SC(=S)N(CC(=O)NNC(=O)c3ccncc3)C2=O)cc1 ; yields the recorded call
Result string: F

Query string: Please let me know the test result on file for O=C(N/N=C/c1sc(N2CCCCC2)nc1-c1cccs1)c1cccnc1 .
Result string: T

Query string: Test call for this compound, please: CCN1C(=O)/C(=c2\s/c(=C3\Sc4ccccc4N3C)c(=O)n2C)N(C)C1=S
Result string: F

Query string: Per the records of this test, what outcome belongs to O=S(=O)(c1cccc(Cn2nnc(-c3ccc(F)cc3)n2)c1)N1CCOCC1 ?
Result string: F

Query string: # outcome recorded in this test, key = CCOc1ccc(/C=C2\SC(=S)N(NC(=O)c3ccncc3)C2=O)cc1OC
Result string: T
